Cited source: the nanobody polyreactivity screen of Harvey et al. (2022)

assay: yeast display, Sf9 membrane polyspecificity reagent, FACS + sequencing; frameworks hold sequencing errors
ASSAY READOUT: polyreactivity (PSR sort gate)

{"SEQUENCE STRING": "QVQLVESGGGLVQAGGSLRLTCAASGITFGDYALGWYRQAPGKERELVAAITRRSGNTRYADSVKGRFTISRDNAKNTVYLQMNSLKPEDTAVYYCNARWFSYARGFENGYWGQGTQVTVSS", "RESULT": "high polyreactivity"}
{"SEQUENCE STRING": "QVQLVESGGGLVQAGGSLRLSCAASGRTYFTNAMGWYRQAPGKERELVAAITGSGGSTSYADSVKVRFTISRDNAKNTVYLQMNSLKPEDTAVYYCAAEWQELEYVYWGQGTQVTVSS", "RESULT": "low polyreactivity"}
{"SEQUENCE STRING": "QVQLVESCGGLVQAGGSLSLSCAASGRILYYYAMGWYRQAPGKERELVAAITSGGSTYADSVKGRFTISRDNAKNTVYLQMNSLKPEDTAVYYCNADYTVYDTEYDYWGQGTQVTVSS", "RESULT": "low polyreactivity"}
{"SEQUENCE STRING": "QVQLVESGGGLVQAGGSLRLSCAASGITFGKNALGWYRQAPGKERELVATIRRSGGSTYADSVKGRFTISRDNAKNTVYLQMNSLKPEDTAVYYCNARSWNTYNYWGQGTQVTVSS", "RESULT": "high polyreactivity"}
{"SEQUENCE STRING": "QVQLVESGGGLVQAGGSLRLSCAASGSIFSSYAMGWYRQAPGKERELVAVITSGDSTNYADSVKGRFTISRDNAKNTVYLQMNSLKPEDTAVYYCNADSYGGSDRYDYWGQGTQVTVSS", "RESULT": "low polyreactivity"}
{"SEQUENCE STRING": "QVQLVESGGGLVQAGGSLRLSCAASGRIFQGFAMGGYRQAPGKERELVAAISSGGRTYYADSVKGRFTISRDNAKNTVYLQMNSLKPEDTAVYYCAARSPKANGLQRFDYWGQGSQVTVSS", "RESULT": "high polyreactivity"}

Input line: So what does the record say about polyreactivity (PSR sort gate) for QVQLVESGGGLVPAGGSLRLSWAASGRTFTRNAMGWYRQAPGKERELVAVITSSGRTNYADSVKGRVTISRDNAKNTVYLQMNSLKPEDTAVYYCNKVSARYPYPLYDYWGQGTQVTVSS ?
Output line: high polyreactivity

---

assay: yeast display, Sf9 membrane polyspecificity reagent, FACS + sequencing; frameworks hold sequencing errors
ASSAY READOUT: polyreactivity (PSR sort gate)

The following sequences have reported results that may help.
{"SEQUENCE STRING": "QVQLVESGVGLVQAGGSLRLSCAPSGRIFIYYAMGWYRQAPGKERELVATITASGDSTYYADSVKGRFTISRDNAKNTVYFQMNSLKPEDTAVYYCAADDGDYYEVDYWGQGTQVTVSS", "polyreactivity (PSR sort gate)": "low polyreactivity"}
{"SEQUENCE STRING": "QVQLVESGGGLVQAGGSLRLSCAASGSIFSDYAMGWYRQAPGTERELVAAITEGGDSTYYADSVKGRFTISRDNAKNTVYLQMNSLKPEDTAVYSCAAEVYQLFTSPFDYWGQGTQVTVSS", "polyreactivity (PSR sort gate)": "low polyreactivity"}
{"SEQUENCE STRING": "QVQLVESGGGLVQAGGSIRLSCASSGSTFTIYAMGWYRPAPGKERELVAAISGTGGTKYADSVKGRFTISRDNAKNTVYLQMNSLKPEDTAVYYCAVGLVPLRDGWHFYYEFDSWGQGTQVTVSS", "polyreactivity (PSR sort gate)": "low polyreactivity"}
{"SEQUENCE STRING": "QDQLVESGGGLLQAGGSLRLICAASGYTLQGYAMGSSRQATGKERELVAAISSNGGSTYYADSVKGRFTISRDNAKNTVYLEMNSLKPEDTAVYYCNAQYIVYYRYARITKYDYWGQGTQVTVSS", "polyreactivity (PSR sort gate)": "high polyreactivity"}
{"SEQUENCE STRING": "QVQLVESGGGLVQAGGRRRLSCAASGSTLRDYVMGWYRQAPGKERELVAAITGRVDDTYYADSVKGRFTISRDNAKNTVYLQMNSLKPEDTAGYYCAADYSVTLRIGGFYWFYAFDYWGQGSQVTVSS", "polyreactivity (PSR sort gate)": "low polyreactivity"}

Input line: So what does the record say about polyreactivity (PSR sort gate) for QVQLVESGGGLVQAGGSLRLSCAASGRIFVPYTMGWYRQAPGKEWELVAAISRSGGSTYYADSVKGRFTISRDNAKNTVYLQMNSLKPEDTAVYYCAARATNVYSKMDSWGQGTQVTVSS ?
Output line: high polyreactivity

Input line: Next sequence: QVQLVESGGGLVQAGGSLRLSCAASGRTTYWYAMGWYRQAPGKERELLADISWSGGSTYYADSVKGRFTISRDNAKNTVYIQMNSLKPEDTAVYYCNAAEQKYSIYYAFDTGPYDYWGQGTQVTVSS
Output line: low polyreactivity

Input line: Next sequence: QVQLVESGGGLVQAGGSLRLSCAASGSTFASYAMGWNRQAPGKEREFVAAISRSGGSTYYADSVKWRFTISRDNAKNTVYLQMNSLKPEDTAVYYCAARSPSADEYYFWGQGTQVTVSS
Output line: low polyreactivity

Input line: Next sequence: QVQLVESGGGLVQAGGTLRLSCAASGRTFLWNDMGWDRQAPGQERELVAAITGSDGTYADSVKGRFTISRDNAKNTVYLQMNSLKPEDNAVYYCAAETYWFFPWKYDYWGQGTQVTVSS
Output line: low polyreactivity

Input line: Next sequence: QVQLVESGGGLVQAGGSRRLSWAASGFIFARNTMGWYRQAPGTERELVAAITKSGGSTYYADSVKGRFTISRDNAKNTVYLQMNILKPEDTAVYYCGARSYTLRGVYFSGYDYWGQGTQVTVSS
Output line: low polyreactivity

Input line: Next sequence: QVQLVESGGGLVQAGGSLRLSCAASGFIFPGYAMGWYRQAPGKERELVAVISGSGARTYYADSVKGRFTISRDNAKNTVYLQMNSLKPEDTAVYYCATDYCRTRQYRPGDYWGQGTQVTVSS
Output line: high polyreactivity

Input line: Next sequence: QVQLVESGGGLVQAGGSLRLSCAASGSIFRIYAMGWYRQAPGKERELVAAIDSSGGSTYYADSVKGRFTISRDNAKNTVYFQMNSLKPEDTAVYYCNATFGYPFVDYDDYWGQGTQVTVSS
Output line: low polyreactivity

Input line: Next sequence: QVQLVESGGGLVQAGGSLRLSSAASGITSYGYAMGWNRQAPGKERELVASISWTGGNTYADSVKGRFTISRDNAKNTVYLQMNSLFPEDTAVYYCNAGRSWDYWYGYDYWGQGTHVTVSS
Output line: low polyreactivity

Input line: Next sequence: QVQLVESGGGLVQAGGSLRLSCAASGLTFYYYAMGWYRQAPGKERELVADISYSGGSTYYADSVKGRFTISRDNAKNTVYLQMNSLKPEDTAVYYCAAEGGYTISGSYDYWGQVTQVTVSS
Output line: low polyreactivity

Input line: Next sequence: QVQLVESAGGLVQAGGSLRLSCDASGRTFPYNAMGWYRQAHGKERELVAGITGGGSTYYADSVKGRFTISRDNAKNNVYLQMNSLKPEDTAVYYCAADRYFLYATYPDVEFNYWGQGTQVTVSS
Output line: high polyreactivity

---

experiment: yeast display, Sf9 membrane polyspecificity reagent, FACS + sequencing; frameworks hold sequencing errors
ASSAY READOUT: polyreactivity (PSR sort gate)

{"SEQUENCE STRING": "QVQLVESGGGLVQAGGSLRLSCAASGFTISQYAMGWYRQAPGKERELVAVISINGGSTYYADSVKGRFTISRDNAKNTVYLEKNSLKPEDTAVYYCAADDTDSEDYGYDYWGQGTQVTVSS", "polyreactivity (PSR sort gate)": "low polyreactivity"}
{"SEQUENCE STRING": "QVQLVESGGGLVQAGGSLRLSCAASGSTFDYNAMGCYRQAPRKERELDAVIRSGGTTYYADSVKGRFTISRVNAKNTVYLQMNSLKPEDTAVYYCAASFQRRAGSYGGSRRYGYLGQGTQVTVSS", "polyreactivity (PSR sort gate)": "high polyreactivity"}
{"SEQUENCE STRING": "QVQLVESGGGLVQAGGSLRLSCAASGSIFGGYAMGWYRQAPGKERELVAAISWSSSSTYYADSVKGRFTISRDNAKNTVFLQMISLKPEDTAVYYCATGIYPQTSDYVYWGQGTQVTVSS", "polyreactivity (PSR sort gate)": "low polyreactivity"}
{"SEQUENCE STRING": "QVQLVESGGRIVQAGRSLRLTCAASGRTFRNYAMGWYRQAPGKEREFVAAITSRSSRTYYADSVKGRFTISRDNEKNTVYLQMNSLIPEDTAVYYCARGSELGYYAWVYYWGQGTQVTVSS", "polyreactivity (PSR sort gate)": "high polyreactivity"}
{"SEQUENCE STRING": "QVQLVESGGGLVQAGGSLRLSCAASGFIFRSYAMGWYRQAPGKERELVAAITHTGTTYYADSVKGRFTISRDNAKNSVYLQMNSLKPEDTAVYYCNANYYRTHYVYWGQGTQVTVSS", "polyreactivity (PSR sort gate)": "high polyreactivity"}

Input line: So what does the record say about polyreactivity (PSR sort gate) for QVQLVESGGGLVQAGGSLRLSCAASGSIFGIYARGWYRQAPGKEREFVATITLGGGNTYYADSVKGRFTISRDYAKNTVYLQMNSLKPEDTAVYYCAARYFGLKRYDDYWGQGTQVTVSS ?
Output line: high polyreactivity

Input line: Next sequence: QVQLVEAGGGLVQAGGSLRLSCAASGRIFGRYVMGWYRQAPGKERELVASISTRRGRTYYADSVKGRFTSSRDNAKNTVYLQMNSLKPEDTAVYYCATAYSSHYGIHRRYEYWGQGTQVTVSS
Output line: high polyreactivity
